Tested on: LOX IMVI melanoma
EXPERIMENTAL PROTOCOL: NCI tumour cell line growth inhibition, 48 h
PARAMETER MEASURED: TGI

INSERT INTO assay_data (compound, value) VALUES
  ('Cc1ccc(S(=O)(=O)SCc2ccccc2CSS(=O)(=O)c2ccc(C)cc2)cc1', '29.4 µM'),
  ('CCc1ccc(Nc2cc(=O)[nH]c(=S)n2C)cc1', '> 100 µM'),
  ('COc1ccc(OC)c(C#Cc2ccc(OC)c(C(=O)NCCc3ccc(F)cc3)c2)c1', '> 100 µM'),
  ('Cc1cc2c(cc1C)C(=O)C1(C2)Cc2c(ccc(C)c2C)C1=O (stereo not given)', '> 100 µM'),
  ('Nc1ccc2c(c1)CC1c3ccccc3C(C2)c2ccccc21', '> 100 µM'),
  ('COc1ccc2c(c1)CCCN1Cc3cc(OC)c(OC)cc3CC21 (stereo not given)', '> 100 µM'),
  ('COc1cc(Br)cc2nc(-c3cccs3)oc12', '> 100 µM'),
  ('CCCNC(C#N)c1ccc(OCCCCCCCCCCOc2ccc(C(C#N)NCCC)cc2)cc1 (stereo not given)', '34.6 µM'),
  ('CC[C@H](C)C1=C(O)[N@+]2([O-])Oc3ccc(-c4c(O)c(O)c(-c5ccc(OC(C)=O)cc5)c(OC(C)=O)c4OC(C)=O)cc3O[C@]2([C@@H](C)CC)C(=O)N1O', '> 50 µM'),
  ('O=C(Nc1nnc(-c2c(Cl)c(Cl)c(Cl)c(Cl)c2-c2nc3cc(C(=O)c4ccccc4)ccc3[nH]2)o1)c1ccccc1', '32 µM');
